Each entry below carries its recorded GI50.
Tested on: K562
Test: NCI tumour cell line growth inhibition, 48 h
The source made the active and inactive calls. No stated cut-off is given here; in the data, active = GI50 up to about 1.1 µM and inactive = higher.

Below, 4 compounds whose answers are already recorded.
compound	GI50
O=C(CC1(O)C(=O)Nc2ccccc21)c1ccc(Cl)c(Cl)c1 (centres undefined)	> 100 µM (inactive)
N#CC1=C(N)N2C(=O)/C(=C/c3ccccc3)SC2C(c2nc3ccccc3[nH]2)=C1c1ccccc1 (centres undefined)	5.32 µM (inactive)
c1ccc(COC2(OCc3ccccc3)CC3OC2C2NN=NC32)cc1 (centres undefined)	15.6 µM (inactive)
CCOC(=O)c1ccc(N(C)Cc2cnc3nc(N)nc(N)c3n2)cc1	2.58 µM (inactive)

Switching to the query record.
Input: For K562, provide GI50 of "O=C(/C=C/c1cccs1)c1ccc(Cl)s1" please.
Output: 31.3 µM (inactive)
